Test system: TO-3-N3 (biotin conjugate)
procedureSummary: pull-down binding Z-score (relative to library population); higher = stronger binding
measurementSetup: RNA library: Library-2
Please map values of pull-down binding Z-score to classes as shown: c1 (below -0.009), c2 (-0.009 to below 0.3), c3 (0.3 or more)

[[record]]
seq = "GGUUUAGCUGCUGUUAAUAGUGUCCCUUGGGAUACUAUAGCUAAUUAUGCUAAGCC"
cat = "c3"

[[record]]
seq = "CCCACCAUGUACCAGUGGG [hsa-mir-4422]"
cat = "c1"

[[record]]
seq = "GCAACUUGCUGUUGUUGUUUGUAACAGUUUACUCACACCUUUUGCUCGUUGC"
cat = "c1"

[[record]]
seq = "UUCUGUUGUCAGAAAGAAGAGAA [hsa-mir-1283-1]"
cat = "c2"

[[record]]
seq = "CUCAGGAAUUGGAUAAGCUUUUCUGAG [hsa-mir-5194]"
cat = "c1"

[[record]]
seq = "ACAGGUAGUGGCCACAGUGAGAAAGCUGGCCUGUCCUUCUGC [hsa-mir-4314]"
cat = "c2"

[[record]]
seq = "GGAGGGUGAGCUUUCUGAAAACCCCUCC [hsa-mir-188]"
cat = "c3"

[[record]]
seq = "GGGUCGGUUGCUCACAAGUCCUGCCUGCCUGCCU [IAV_invivo_NP_5_Motif_15+IAV_invivo_NP_5_Motif_15]"
cat = "c2"

[[record]]
seq = "CUGUGGCCGGUCCCAG [hsa-mir-4656]"
cat = "c3"

[[record]]
seq = "CCUUACCCAGAUCCAUCAAGAAUCCUAGGGGCCGG"
cat = "c3"

